tgt: T1, Human PD-1 expressed on CHO-K1 cells (CHO-K1/hPD-1) (human, UniProt Q15116 25-288)
T1 construct: whole, on cells; also called CHO-K1 cells overexpressing human PD-1
assayText: FACS, CHO-K1/hPD-1 cells
measuredAttribute: pEC50
In plain terms, pEC50 is the concentration in mol/L turned into minus its base-10 logarithm.

Known pEC50 results, listed for orientation:
binder	pEC50
PR002479 (antibody, human IgG1, V domains shown, Heavy-chain-only antibody (HCAb), human IgG1 Fc; two heavy chains, no light chain; also called R4004P551D6) VH: EVQLVETGGGLIQPGGSLRLSCAASGFNVSSHYMSWVRQAPGKGLEWVSIIHSGGSTYYADSVKGRFTISRDNSKNRLYLQMNSLRAEDTAVYYCARATAVAEENGYNYPFNYWGQGTLVTVSS	7.77
PR000676 (antibody, human IgG4 S228P, kappa, V domains shown, Fully human recombinant H2L2 antibody, human IgG4, kappa light chain; also called 4004_1A7A1) VH: QIQLVESGGGVVQPGRSLRLSCAASGFTLSSYGMHWVRQAPGKGLEWVAVILSDGSNKYYADSVKGRFTISRDNSKNTLYLQMNSLRAEDTAVYYCADLGGDVWGQGTTVTVSS VL: EIVLTQSPATLSLSPGERATLSCRASQSVSSYLAWYQQKPGQAPRLLIYDASTRATGIPARFSGSGSGTDFTLTISSLEPEDFAVYYCQQRSNWPLTFGGGTKVEIKR	7.99
PR002475 (antibody, human IgG1, V domains shown, Heavy-chain-only antibody (HCAb), human IgG1 Fc; two heavy chains, no light chain; also called R4004P547D9) VH: EVQLVETGGGLIQPGGSLRLSCAASGFNVSSNYMSWVRQAPGKGLEWVSIIHSGGSTYYADSVKGRFTISRDNSKNTLYLQMNSLRAEDTAVYYCARAIAVAEKNGYNYPFNYWGQGTLVTVSS	7.73
PR002477 (antibody, human IgG1, V domains shown, Heavy-chain-only antibody (HCAb), human IgG1 Fc; two heavy chains, no light chain; also called R4004P547H9) VH: EVQLVETGGGLIQPGGSLRLSCAASGFNVSSHYMSWVRQAPGKGLEWVSIIHSGGSTYYADSVKGRFTISRDNSKNRLYLQMNSLRAEDTAVYYCARAIAVAEKNGYNYPFNYWGQGTLVTVSS	7.53
PR005150 (VHH, Monovalent single-domain (VH) variant of PR002481 with Flag-6His tag) VHH: EVQLVETGGGLIQPGGSLRLSCAASGFNVSSFYMSWVRQAPGKGREWVSIIDKAGSTYYGASVKGRFTISRDNSKNRLYLQMNSLRAEDTAMYYCARATEVREKQGYNYPFNYWGQGTLVTVSS	7.65
PR002478 (antibody, human IgG1, V domains shown, Heavy-chain-only antibody (HCAb), human IgG1 Fc; two heavy chains, no light chain; also called R4004P548A8) VH: EVQLVETGGGLIQPGGSLRLSCAASGFNVSSNYMSWVRQAPGKGLEWVSIIHSGGSTYYADSVKGRFTISRDNSKNRLYLQMNSLRAEDTAVYYCARAIAVAEKNGYNYPFNYWGQGTLVTVSS	7.69
PR005144 (VHH, Monovalent single-domain (VH) variant of PR002481 with Flag-6His tag) VHH: EVQLVETGGGLIQPGGSLRLSCAASGFNVSFYYMSWVRQAPGKGREWVSIIDKSGSTYYAASVKGRFTISRDNSKNRLYLQMNSLRAEDTAMYYCARATEVREKNGYNYPFNYWGQGTLVTVSS	7.64
PR005141 (VHH, Monovalent single-domain (VH) variant of PR002481 with Flag-6His tag) VHH: EVQLVETGGGLIQPGGSLRLSCAASGFNVSYFYMSWVRQAPGKGREWVSIIDKGGSGYYAASVKGRFTISRDNSKNRLYLQMNSLRAEDTAMYYCARATEVREKNGYNYPFNYWGQGTLVTVSS	6.96

Now for another entry.
Ask: Note down pEC50 recorded for PR002481 (antibody, human IgG1, V domains shown, Heavy-chain-only antibody (HCAb), human IgG1 Fc; two heavy chains, no light chain; also called R4004P556D1; anti-PD1 R4004P556D1 HCAb hG1) VH: EVQLVETGGGLIQPGGSLRLSCAASGFNVSSHYMSWVRQAPGKGREWVSIIDGGGSTYYADSVKGRFTISRDNSKNRLYLQMNSLRAEDTAMYYCARATAVAEKNGYNYPFNYWGQGTLVTVSS
Reply: 8.05
